The reported measurements were obtained from patent US20220356245A1.

- TARGET OF ASSAY: T1, hu-sCD47-6His; extracellular domain of human CD47 antigen with 6His-tag (human)
- T1 construct: also called hCD47-his; soluble hCD47
- ASSAY PROCEDURE: SPR Biacore;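 further: antibodies captured on anti-IgG CM5 chip, soluble His-tagged human CD47 flowed over at rising concentrations, five 10 min injections, flow cell 1 as reference, 1:1 model fit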
MEASUREMENT KIND: Kd (nM)
# value in nM; strip the unit string

{"BINDER": "h20-VH3-VL5 (candidate 20.15) (antibody, human IgG4 S228P, kappa, V domains shown, hIgG4-S228P/kappa; also called h20-H3-L5) VH: QVQLVQSGAEVKKPGASVKVSCKASGYSFTDYYINWVRQAPGQGLEWMGRIYPGIGNTYYNKKFKGRVTVTRDTSISTAHMELSSLRSDDTAVYYCARGHYGRGMDYWGQGTAVTVSS VL: DIVMTQSPDSLAVSLGERATINCKSSQSLLNSIDQKNYLAWYQQKPGQPPKLLIYFASTKESGVPDRFSGSGSGTDFTLTISGLQAEDVAVYFCQQHYSTPWTFGGGTKVEIRR", "UNIT OF MEASURE": "nM", "Kd": 2.36}
{"BINDER": "h20-VH1-VL5 (candidate 20.5) (antibody, human IgG4 S228P, kappa, V domains shown, hIgG4-S228P/kappa; also called h20-H1-L5) VH: QVQLLESGAVLARPGTSVKISCKASGYSFTDYYINWVKQRPGQGLEWIGRIYPGIGNTYYNKKFKGRAKLTAATSASIAYLEFSSLTNEDSAVYYCARGHYGRGMDYWGQGTLVTVSS VL: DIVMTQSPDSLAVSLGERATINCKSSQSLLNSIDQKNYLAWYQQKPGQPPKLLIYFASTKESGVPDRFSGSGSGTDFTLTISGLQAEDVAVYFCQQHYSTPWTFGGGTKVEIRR", "UNIT OF MEASURE": "nM", "Kd": 3.53}
{"BINDER": "h20-VH3-VL4 (candidate 20.14) (antibody, human IgG4 S228P, kappa, V domains shown, hIgG4-S228P/kappa; also called h20-H3-L4) VH: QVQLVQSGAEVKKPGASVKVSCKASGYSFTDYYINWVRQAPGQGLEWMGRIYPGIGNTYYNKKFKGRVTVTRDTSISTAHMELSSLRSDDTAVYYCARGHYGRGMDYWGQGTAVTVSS VL: DIVMTQSPDSLAVSLGERATINCKSSQSLLNSIDQKNYLAWYQQKPGQPPKLLIYFASTKESGVPDRFSGSGSGTDFTLTISSLQAEDVAVYFCQQHYSTPWTFGGGAKVEIKR", "UNIT OF MEASURE": "nM", "Kd": 3.02}

Field Kd (entry h20-VH2-VL4 (candidate 20.9) (antibody, human IgG4 S228P, kappa, V domains shown, hIgG4-S228P/kappa; also called h20-H2-L4) VH: QVQLVQSGAEVKKPGASVKVSCKASGYSFTDYYINWVRQAPGQGLEWMGRIYPGIGNTYYNKKFKGRVTITRDTSASTAYMELSSLRSEDTAVYYCARGHYGRGMDYWGQGTLVTVSS VL: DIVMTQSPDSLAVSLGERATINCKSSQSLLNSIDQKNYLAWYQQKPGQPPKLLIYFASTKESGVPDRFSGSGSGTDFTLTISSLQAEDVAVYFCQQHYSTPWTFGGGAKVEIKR ) reads 3.34

Field Kd (entry h20-VH4-VL4 (candidate 20.19) (antibody, human IgG4 S228P, kappa, V domains shown, hIgG4-S228P/kappa; also called h20-H4-L4) VH: QVQLVQSGAEVKKPGSSVKVSCKASGYSFTDYYINWVRQAPGQGLEWMGRIYPGIGNTYYNKKFKGRVTITADKSTSTAYMELSSLRSEDTAVYYCARGHYGRGMDYWGQGTTVTVSS VL: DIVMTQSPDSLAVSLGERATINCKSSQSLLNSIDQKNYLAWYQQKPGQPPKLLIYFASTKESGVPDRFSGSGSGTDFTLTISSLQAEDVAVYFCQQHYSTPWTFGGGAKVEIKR ) reads 4.15
